target.desc: Bradykinin Receptor (Cavia porcellus, UniProt O70526)
Construct: The ileum was removed and homogenized in buffer
Sequence (O70526 whole entry): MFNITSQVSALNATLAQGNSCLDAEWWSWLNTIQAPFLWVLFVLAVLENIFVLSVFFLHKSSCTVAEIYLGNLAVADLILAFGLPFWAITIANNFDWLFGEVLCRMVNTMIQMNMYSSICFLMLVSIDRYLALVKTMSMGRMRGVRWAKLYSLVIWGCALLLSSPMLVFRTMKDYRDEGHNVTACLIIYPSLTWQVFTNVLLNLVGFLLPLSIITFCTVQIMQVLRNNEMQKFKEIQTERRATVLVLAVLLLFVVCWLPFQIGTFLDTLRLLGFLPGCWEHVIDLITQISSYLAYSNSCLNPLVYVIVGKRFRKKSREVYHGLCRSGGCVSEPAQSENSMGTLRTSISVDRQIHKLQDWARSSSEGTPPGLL
assay.method.text: ^3 H-Bradykinin Receptor Binding (crude guinea pig ileum membrane)
settings: ^3 H-Bradykinin 0.06 nM, room temperature, 60 minutes, read-out: Inhibition of ^3 H-Bradykinin binding IC50
Description: ^3 H-Bradykinin Receptor Binding (a) Crude Ileum Membrane Preparation Male Hartly strain guinea pigs were sacrificed by decapitation. The ileum was removed and homogenized in buffer (50 mM 2-[[tris(hydroxymethyl)methyl]amino]-1-ethanesulfonic acid (TES), 1 mM 1,10-phenanthroline pH 6.8). […] The frozen crude membrane suspension was thawed. […] The radioactivity retained on rinsed filters was determined by a liquid-scintillation counter.
Where a name gives a salt, the structure may show the parent alone.
quantity.kind: IC50 (nM)
Write it as a number; the unit nM goes unstated.

So for CCOC(=O)c1ccc(C=CC(=O)NCC(=O)N(C)c2ccc(Cl)c(COc3cccc4c(-n5ccnc5)cc(C)nc34)c2Cl)cc1 [17-(1)] , the logged IC50 turned out to be 3.9

Entry Cc1cc(-n2ccnc2)c2cccc(OCc3c(Cl)ccc(N(C)C(=O)CNC(=O)Nc4cccc(C(=O)Nc5ccncc5)c4)c3Cl)c2n1 [3 (trihydrochloride)] — recorded IC50 = 6.6

// IC50 lookup, compound = Cc1cc(-n2cccn2)c2cccc(OCc3c(Cl)ccc(N(C)C(=O)CNC(=O)C=Cc4ccc(C(=O)N(C)C)cc4)c3Cl)c2n1 [11-(4) (dihydrochloride)] , result: 3.3

Form: compound = Cc1cc(-n2cncn2)c2cccc(OCc3c(Cl)ccc(N(C)C(=O)CNC(=O)C=Cc4ccc(C(=O)N(C)C)cc4)c3Cl)c2n1 [12 (dihydrochloride)] ; IC50 = 9.1

IC50 recorded for this compound, Cc1cc(-n2ccnc2)c2cccc(OCc3c(Cl)ccc(N(C)C(=O)CNC(=O)C=Cc4ccc(C(=O)NCc5ccccn5)cc4)c3Cl)c2n1 [2-(3) (trihydrochloride)] , is 4.5

meta.source: patent US6083959A
